test_summary: recombinant barcode read abundance after kanamycin selection (control-corrected) (log10(CPM+1)); higher = more efficient recombination; sequences stand for … in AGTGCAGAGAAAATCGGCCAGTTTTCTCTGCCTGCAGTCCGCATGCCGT…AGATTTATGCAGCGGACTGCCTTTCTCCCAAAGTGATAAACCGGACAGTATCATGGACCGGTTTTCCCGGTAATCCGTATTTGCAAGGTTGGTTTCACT; site = the 11-nt target
Assign criterion met whenever recombinant barcode read abundance (log10) does not fall below 0.1; assign criterion not met whenever it does.

Reference set (3 entries):
- GATAGGGCTTGGGTTCTAACCTGTTGCCT (site GATAGGGCTAG): criterion met
- TATGCGGCTTGGGTTCTAACCTGTTGCCT (site TATGCGGCTAG): criterion met
- GAGACTGCTTGGGTTCTAACCTGTTGCCT (site GAGACTGCTAG): criterion met

Let us examine a further case.
Incoming: Determine whether measured recombinant barcode read abundance (log10) meets or exceeds 0.1 for ATGAAGACTTGGGTTCTAACCTGTTGCCT (site ATAAAGACTAG)
Outgoing: criterion met

###

test_summary: recombinant UMI read abundance after kanamycin selection (control-corrected) (log10(CPM+1)); higher = more efficient recombination; extreme values may be limits of the assay; sequences stand for … in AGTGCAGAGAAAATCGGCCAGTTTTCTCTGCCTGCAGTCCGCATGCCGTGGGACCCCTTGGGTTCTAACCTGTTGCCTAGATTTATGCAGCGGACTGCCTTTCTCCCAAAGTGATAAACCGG…AGGTTGGTTTCACT; site = the 11-nt donor
recombinant UMI read abundance (log10): recorded values
In your answer, state the number alone without any accompanying words.

Worked examples, 3 sequences total:
• CATTGCACATGGACCGGTTTTCCCGGTAATCCGTATTTGTA (site CATTGCACTTA) = 0.726
• GCGAAAACATGGACCGGTTTTCCCGGTAATCCGTATTTGCG (site GCGAAAACTCG) = 2.63
• CTTTAAACATGGACCGGTTTTCCCGGTAATCCGTATTTGTC (site CTTTAAACTGA) = 0

Field recombinant UMI read abundance (log10) (entry TAATGGCCATGGACCGGTTTTCCCGGTAATCCGTATTTGCA (site TAATGGCCTTG) ) reads 0.0063

Kindly note the recorded recombinant UMI read abundance (log10) for CAGTCGGCATGGACCGGTTTTCCCGGTAATCCGTATTTGGG (site CAGTCGACTCC) , which is 0.027

###

Each record here notes measured recombinant UMI read abundance (log10).
test_summary: recombinant UMI read abundance after kanamycin selection (control-corrected) (log10(CPM+1)); higher = more efficient recombination; extreme values may be limits of the assay; sequences stand for … in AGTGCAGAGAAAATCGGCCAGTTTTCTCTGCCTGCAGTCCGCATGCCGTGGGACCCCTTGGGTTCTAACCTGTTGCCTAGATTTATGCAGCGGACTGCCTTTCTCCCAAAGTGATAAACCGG…AGGTTGGTTTCACT; site = the 11-nt donor
Answer with a bare number; do not write a unit.

// known answers, use as guide
* CAAGCTGCATGGACCGGTTTTCCCGGTAATCCGTATTTGCT (site CAAGCAGCTAG) | 0.397
* GAATTCCCATGGACCGGTTTTCCCGGTAATCCGTATTTGTA (site GAATTCCCTTA) | 0.666
* CTAGTTTCATGGACCGGTTTTCCCGGTAATCCGTATTTGAC (site CTAGTGTCTGT) | 0

recombinant UMI read abundance (log10) measured on CCTAAAGCATGGACCGGTTTTCCCGGTAATCCGTATTTGTT (site CCTAAAGCTAC) = 0

// recombinant UMI read abundance (log10) lookup, sequence = TATTCCCCATGGACCGGTTTTCCCGGTAATCCGTATTTGTA (site TGTTCCCCTTA) , result: 0.254

###

test_summary: recombinant UMI read abundance after kanamycin selection (control-corrected) (log10(CPM+1)); higher = more efficient recombination; extreme values may be limits of the assay; sequences stand for … in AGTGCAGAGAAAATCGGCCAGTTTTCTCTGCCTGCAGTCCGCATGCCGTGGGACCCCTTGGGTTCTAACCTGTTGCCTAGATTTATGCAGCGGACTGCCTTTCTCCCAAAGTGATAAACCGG…AGGTTGGTTTCACT; site = the 11-nt donor
// n strictly below 1 in recombinant UMI read abundance (log10); y otherwise

Past entries and their recorded results:
• ACTAGAGCATGGACCGGTTTTCCCGGTAATCCGTATTTGAG (site ACTAGAGCTCT) = y
• CAAGCTGCATGGACCGGTTTTCCCGGTAATCCGTATTTGCT (site CAAGCTGCTAG) = y
• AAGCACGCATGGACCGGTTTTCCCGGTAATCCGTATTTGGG (site ATGCACGCTCC) = n
• GTAGTATCATGGACCGGTTTTCCCGGTAATCCGTATTTGAT (site CTAGTATCTGT) = y
• AACCTTTCATGGACCGGTTTTCCCGGTAATCCGTATTTGAC (site ACCCTTTCTGT) = n

Incoming: Hi, just wondering whether GGTACCTCATGGACCGGTTTTCCCGGTAATCCGTATTTGTT (site GGTACCTCTAA) shows recombinant UMI read abundance (log10) of 1 or higher.
Outgoing: n

Incoming: Threshold query (recombinant UMI read abundance (log10) >= 1) on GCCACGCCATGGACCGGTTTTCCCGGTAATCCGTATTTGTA (site ACCACGCCTTA)
Outgoing: n

Incoming: Is reported recombinant UMI read abundance (log10) greater than or equal to 1 here: ACTCTACCATGGACCGGTTTTCCCGGTAATCCGTATTTGCT (site ACTCTACCTAG)
Outgoing: n

Incoming: # bool: recombinant UMI read abundance (log10) of TAGCTCTCATGGACCGGTTTTCCCGGTAATCCGTATTTGGG (site TAGCTCTCTCC) >= 1
Outgoing: n

Incoming: Would you say TAGTATCCATGGACCGGTTTTCCCGGTAATCCGTATTTGCA (site TAGTATCCTTG) shows recombinant UMI read abundance (log10) at minimum 1?
Outgoing: n

Incoming: # bool: recombinant UMI read abundance (log10) of CGATTATCATGGACCGGTTTTCCCGGTAATCCGTATTTGTT (site CGATTATCTAA) >= 1
Outgoing: y

###

test_summary: recombinant barcode read abundance after kanamycin selection (control-corrected) (log10(CPM+1)); higher = more efficient recombination; sequences stand for … in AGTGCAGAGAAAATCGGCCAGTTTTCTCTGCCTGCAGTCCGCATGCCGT…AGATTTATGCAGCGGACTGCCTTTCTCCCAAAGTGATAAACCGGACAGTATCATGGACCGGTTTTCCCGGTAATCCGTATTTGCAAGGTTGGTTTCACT; site = the 11-nt target
Record Met whenever recombinant barcode read abundance (log10) is at 0.3 or higher; record Not met when lower.

Record excerpt, results attached:
- GGGGCACCTTGGGTTCTAACCTGTTGCGT (site GGGGCACCTAA): Met
- ATGCCCACTTGGGTTCTAACCTGTTGCCT (site ATGCCAACTAG): Not met
- CGTTCAACTTGGGTTCTAACCTGTTGCCT (site CGTTCGACTAG): Not met
- AGTATGACTTGGGTTCTAACCTGTTGCCT (site TGTATGACTAG): Not met
- TCAGCATCTTGGGTTCTAACCTGTTGCCT (site TCAGAATCTAG): Not met
- AAGTCTCCTTGGGTTCTAACCTGTTGCCT (site AAGACTCCTAG): Not met
- GCCCGATCTTGGGTTCTAACCTGTTGCCT (site GCCCAATCTAG): Met
- GAGGATCCTTGGGTTCTAACCTGTTGCCT (site GGGGATCCTAG): Met

Incoming: Check if recombinant barcode read abundance (log10) >= 0.3 (inclusive). Item: ACAGAGACTTGGGTTCTAACCTGTTGCGC (site ACAGAGACTGC)
Outgoing: Met

Incoming: Entry TCGGATGCTTGGGTTCTAACCTGTTGCAT (site TCGGATGCTAT) : is its recombinant barcode read abundance (log10) no less than 0.3?
Outgoing: Met

Incoming: Entry ACATGTCCTTGGGTTCTAACCTGTTGCAT (site ACATGTCCTAA) : is its recombinant barcode read abundance (log10) no less than 0.3?
Outgoing: Met

Incoming: Does the reported recombinant barcode read abundance (log10) for AGCCACTCTTGGGTTCTAACCTGTTGCCT (site AGCCACGCTAG) fall at or above the 0.3 mark?
Outgoing: Not met

Incoming: Is recombinant barcode read abundance (log10) for GTAGTAACTTGGGTTCTAACCTGTTGCCT (site GTAGTAACTAG) at or above 0.3?
Outgoing: Met

###

test_summary: recombinant barcode read abundance after kanamycin selection (control-corrected) (log10(CPM+1)); higher = more efficient recombination; sequences stand for … in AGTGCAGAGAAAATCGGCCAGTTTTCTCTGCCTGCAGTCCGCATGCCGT…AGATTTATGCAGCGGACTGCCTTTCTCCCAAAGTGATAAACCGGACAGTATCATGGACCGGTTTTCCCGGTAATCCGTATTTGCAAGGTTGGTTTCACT; site = the 11-nt target
Ranges used to classify recombinant barcode read abundance (log10): zone 1 (below 0.1), zone 2 (0.1 to below 0.2), zone 3 (0.2 or more)

Previously resolved entries follow.
• AAGTTAGCTTGGGTTCTAACCTGTTGCGG (site GGCAACTCTAG) = zone 2
• CCAATTGCTTGGGTTCTAACCTGTTGCCT (site CTAATTGCTAG) = zone 1
• TTCAAGCCTTGGGTTCTAACCTGTTGCGG (site TTCAAGCCTAC) = zone 3

Incoming: Which class is correct for the following sequence? GTTCAACCTTGGGTTCTAACCTGTTGCCT (site GATCAACCTAG)
Outgoing: zone 3

Incoming: Class (by measured recombinant barcode read abundance (log10)) for CAAAGATCTTGGGTTCTAACCTGTTGCCT (site CCAAGATCTAG)
Outgoing: zone 1

Incoming: Could you place CGTAGCTCTTGGGTTCTAACCTGTTGCCT (site CGGAGCTCTAG) in its proper category? Many thanks.
Outgoing: zone 2

Incoming: Lab log: TTAGCGTCTTGGGTTCTAACCTGTTGCCT (site TTAGCTTCTAG) — assign recombinant barcode read abundance (log10) category
Outgoing: zone 2

Incoming: # bin label for GTAGTAACTTGGGTTCTAACCTGTTGCCT (site GTAGTACCTAG)
Outgoing: zone 2
